# target-desc: T1, hBCMA (human BCMA) (Homo sapiens, UniProt Q02223)
# T1 sequence (Q02223 1-184): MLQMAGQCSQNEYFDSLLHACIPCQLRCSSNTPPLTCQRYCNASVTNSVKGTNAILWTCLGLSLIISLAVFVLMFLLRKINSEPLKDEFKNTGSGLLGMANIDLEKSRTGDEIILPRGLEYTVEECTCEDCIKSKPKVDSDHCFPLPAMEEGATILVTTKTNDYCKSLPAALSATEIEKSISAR
# test-protocol: Kinetics and affinity of hBCMA/human IgG interactions by SPR (Bio-Rad Proteon XPR36)
# Assay type: binding
# run-parameters: huBCMA, 37° C.
measured-endpoint: ka (1/Ms) huBCMA @ 37° C.

Q. For the molecule L3.PY/L1.FF/H3.TAQ: anti-BCMA antibody (antibody, V domains shown) VH: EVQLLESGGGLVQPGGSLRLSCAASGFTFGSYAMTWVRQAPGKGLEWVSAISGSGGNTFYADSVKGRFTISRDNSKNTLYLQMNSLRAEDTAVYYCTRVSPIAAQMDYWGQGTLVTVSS VL: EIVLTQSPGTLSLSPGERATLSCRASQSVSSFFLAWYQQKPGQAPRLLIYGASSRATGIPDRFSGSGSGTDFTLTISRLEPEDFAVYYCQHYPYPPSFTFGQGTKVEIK , give its reported ka (1/Ms) huBCMA @ 37° C..
A. 3.52e+06 M⁻¹ s⁻¹
